# SUBJECT OF TEST: Na^+ /H^+ exchanger of rabbit erythrocytes (Oryctolagus cuniculus)
# Construct: determine the Na^+ influx into the erythrocytes via Na^+ /H^+ exchange; endogenous in cells
# Sequence (P23791 whole entry): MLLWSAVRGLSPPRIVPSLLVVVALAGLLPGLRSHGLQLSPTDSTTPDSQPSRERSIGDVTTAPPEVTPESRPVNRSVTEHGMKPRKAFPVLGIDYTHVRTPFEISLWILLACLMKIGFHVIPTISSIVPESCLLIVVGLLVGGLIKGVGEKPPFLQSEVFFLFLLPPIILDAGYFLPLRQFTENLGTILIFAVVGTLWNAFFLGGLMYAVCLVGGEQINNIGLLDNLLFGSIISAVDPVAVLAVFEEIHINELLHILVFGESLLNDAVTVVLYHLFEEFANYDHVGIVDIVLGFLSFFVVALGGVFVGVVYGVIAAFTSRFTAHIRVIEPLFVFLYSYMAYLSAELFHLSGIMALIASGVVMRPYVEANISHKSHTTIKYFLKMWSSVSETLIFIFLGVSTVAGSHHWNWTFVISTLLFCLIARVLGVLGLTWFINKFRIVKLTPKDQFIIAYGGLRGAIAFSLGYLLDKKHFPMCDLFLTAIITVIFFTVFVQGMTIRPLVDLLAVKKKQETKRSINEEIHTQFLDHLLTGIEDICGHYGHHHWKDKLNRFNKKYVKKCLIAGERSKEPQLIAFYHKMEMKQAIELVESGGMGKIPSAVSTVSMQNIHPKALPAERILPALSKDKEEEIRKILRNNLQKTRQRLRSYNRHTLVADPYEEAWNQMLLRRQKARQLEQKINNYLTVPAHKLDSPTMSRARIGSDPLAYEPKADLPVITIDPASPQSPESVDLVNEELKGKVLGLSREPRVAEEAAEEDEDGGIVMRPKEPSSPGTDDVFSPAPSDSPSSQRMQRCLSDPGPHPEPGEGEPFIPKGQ
# ASSAY INFO: Inhibition of the Na^+ /H^+ exchanger of rabbit erythrocytes (amiloride-sensitive sodium influx, flame photometry)
# TEST PARAMETERS: pH 7.4, 37° C., rabbits on 2% cholesterol diet
Doc: threshold 1000 nM (exclusive). Items with IC50 beneath it return Met; others return Not met.

Req: Is IC50 of Cn1cccc1C(=O)N=C(N)N [Example 5, 1-Methylpyrrole-2-carboguanidide] strictly below 1000 nM?
Resp: Not met

Req: Is IC50 of Cn1c(C(=O)N=C(N)N)ccc1C(F)(F)F [Example 4] strictly below 1000 nM?
Resp: Met

Req: Is IC50 of Cc1ccc(C(=O)N=C(N)N)s1 [Example 7, 5Methylthiophene-2-carboguanidide] strictly below 1000 nM?
Resp: Not met

Req: Is IC50 of Cn1c(C(=O)N=C(N)N)ccc1C(F)(C(F)(F)F)C(F)(F)F [Example 1] strictly below 1000 nM?
Resp: Met

Req: Is IC50 of CC(C)c1sc(C(=O)N=C(N)N)cc1S(C)(=O)=O [Example 6] strictly below 1000 nM?
Resp: Met

Req: Is IC50 of Cn1c(C(=O)N=C(N)N)ccc1C(F)(F)C(F)(F)F [Example 3] strictly below 1000 nM?
Resp: Met

Req: Is IC50 of NC(N)=NC(=O)c1cc(Br)c(Br)s1 [Example 8, 4,5-Dibromothiophene-2-carboguanidide] strictly below 1000 nM?
Resp: Met
